molecular target: T1, Recombinant human TLR2-10×His (R&D Systems) (human, UniProt O60603 21-590); assay: ELISA: biotin peptide on coated TLR2
T1 construct: Bought protein; also called His-tagged TLR2
T1 sequence (O60603 other isoform, or with tags, fused parts or gaps limits assumed): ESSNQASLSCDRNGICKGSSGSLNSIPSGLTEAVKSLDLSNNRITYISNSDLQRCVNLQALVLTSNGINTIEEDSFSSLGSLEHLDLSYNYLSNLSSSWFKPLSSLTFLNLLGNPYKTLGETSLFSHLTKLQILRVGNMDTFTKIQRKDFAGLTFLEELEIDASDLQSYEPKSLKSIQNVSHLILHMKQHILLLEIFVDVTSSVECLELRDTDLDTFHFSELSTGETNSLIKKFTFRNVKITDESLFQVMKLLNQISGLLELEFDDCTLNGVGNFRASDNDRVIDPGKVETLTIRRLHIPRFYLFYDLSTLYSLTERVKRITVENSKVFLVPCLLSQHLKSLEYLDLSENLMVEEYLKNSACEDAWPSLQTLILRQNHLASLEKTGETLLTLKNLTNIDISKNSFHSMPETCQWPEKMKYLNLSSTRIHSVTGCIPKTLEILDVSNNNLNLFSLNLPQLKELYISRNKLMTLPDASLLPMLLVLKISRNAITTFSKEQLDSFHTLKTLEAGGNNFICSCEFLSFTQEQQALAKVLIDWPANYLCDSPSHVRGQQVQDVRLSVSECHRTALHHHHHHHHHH
Ends that are not written are not given here.
recorded-metric: binding result

input: Name the recorded binding result for RGGRGGFGGRG (not fully specified (N-terminus), Synthetic peptide) [NCL-P5 peptide, N-terminal biotin] .
output: binds

input: Please give the result for GGFGGRGGGRGGFGGRGGGRGGRGGFGGRGRG (not fully specified (N-terminus), Synthetic peptide) [NCL-P1 peptide (32 residues), N-terminal biotin] too.
output: binds
